meta.source: patent US20100286181A1

This section lists IC50 readings for GyrB ATPase activity (E. coli GyrA, E. coli GyrB) (Escherichia coli).
State the answer as a number, implicitly in nM.

Molecule: CCOC(=O)c1cccc2nc(N3CC[C@H](NC(=O)c4[nH]c(C)c(Cl)c4Cl)[C@H](n4ccnc4)C3)sc12 (racemic)
IC50 / nM: 53.4

Test system GyrB ATPase activity (E. coli GyrA, E. coli GyrB) (Escherichia coli); read-out IC50; what value for Cc1[nH]c(C(=O)N[C@H]2CCN(c3ncc(C(=O)O)s3)C[C@H]2n2ccnn2)c(Cl)c1Cl (racemic) ?
12.3

Try this molecule next: CCOC(=O)c1sc(N2CCC(NC(=O)c3[nH]c(C)c(Cl)c3Cl)/C(=N/OC)C2)nc1C(=O)NCCOC (stereo not shown)
36.9

Try this molecule next: COC(=O)c1sc(N2CCC(NC(=O)c3[nH]c(C)c(Cl)c3Cl)C3(C2)OCCCO3)nc1C(C)=O (stereo not shown)
52.2

Try this molecule next: COC(=O)c1cnc(N2CC[C@H](NC(=O)c3[nH]c(C)c(Cl)c3Cl)[C@H](n3cnc(Cl)n3)C2)s1 (racemic)
51.9

Try this molecule next: COCCn1ccnc1-c1nc(N2CCC(NC(=O)c3[nH]c(C)c(Cl)c3Cl)/C(=N/OC)C2)sc1C(=O)OC (stereo not shown)
75.5

====

Biological target: GyrB ATPase activity (E. coli GyrA, E. coli GyrB) (Escherichia coli, UniProt P0AES6)
Readout Type: IC50

Please review the entries below; each comes with its answer.
Compound: COCC(COC)NC(=O)c1nc(N2CC[C@@H](NC(=O)c3[nH]c(C)c(Cl)c3Cl)[C@@H](n3cc(Br)nn3)C2)sc1C(=O)O
IC50: < 0.00977 µM

Compound: CCOC(=O)c1sc(N2CC[C@H](NC(=O)c3[nH]c(C)c(Cl)c3Cl)[C@H](n3cncn3)C2)nc1C(=O)O (racemic)
IC50: < 0.00977 µM

Compound: CNC(=O)c1nc(N2CCC(NC(=O)c3[nH]c(C)c(Cl)c3Cl)/C(=N/OC)C2)sc1C(=O)O (centres unmarked)
IC50: < 0.00977 µM

Any idea what its IC50 is? The compound is CNC(=O)c1nc(N2CCC(NC(=O)c3[nH]c(C)c(Cl)c3Cl)C3(C2)OCCCO3)sc1C(=O)O (centres unmarked)
< 0.00977 µM

====

This section lists IC50 readings for GyrB ATPase activity (E. coli GyrA, E. coli GyrB) (Escherichia coli, UniProt P0AES6).

Please review the entries below; each comes with its answer.
Molecule: CNC(=O)c1nc(N2CCC(NC(=O)c3[nH]c(C)c(Cl)c3Cl)C3(C2)OCCO3)sc1C(=O)OC(C)C (stereo not drawn) [Example 3]
IC50: 270 nM
//
Molecule: COC(=O)c1sc(N2CCC(NC(=O)c3[nH]c(C)c(Cl)c3Cl)C3(C2)OCCO3)nc1C(C)=O (stereo not drawn) [Example 2]
IC50: 487 nM
//
Molecule: CONC(=O)c1cccc2nc(N3CC[C@@H](NC(=O)c4[nH]c(C)c(Cl)c4Cl)[C@@H](n4ccnn4)C3)sc12 [Example 125]
IC50: < 9.77 nM
//
Molecule: CCOC(=O)c1sc(N2CCC(NC(=O)c3[nH]c(C)c(Cl)c3Cl)C3(C2)OCCCO3)nc1C(=O)NCCOC (stereo not drawn) [Example 7]
IC50: 18.5 nM
//
Molecule: CCOC(=O)c1sc(N2CC[C@@H](NC(=O)c3[nH]c(C)c(Cl)c3Cl)[C@@H](n3cc(C#N)nn3)C2)nc1C(=O)NCCOC [Example 92]
IC50: < 9.77 nM
//
Molecule: COC(=O)c1cnc(N2CC[C@@H](NC(=O)c3[nH]c(C)c(Cl)c3Cl)[C@@H](n3cc(Cl)nn3)C2)s1 [Example 71]
IC50: 40 nM
//
Molecule: Cc1cn([C@@H]2CN(c3ncc(C(=O)O)s3)CC[C@@H]2NC(=O)c2[nH]c(C)c(Cl)c2Cl)nn1 (racemic) [Example 122]
IC50: < 9.77 nM
//
Molecule: COCC(COC)NC(=O)c1nc(N2CC[C@@H](NC(=O)c3[nH]c(C)c(Cl)c3Cl)[C@@H](n3cc(C)nn3)C2)sc1C(=O)O [Example 105]
IC50: < 9.77 nM

Any idea what its IC50 is? The molecule is CCOC(=O)c1sc(N2CCC(NC(=O)c3[nH]c(C)c(Cl)c3Cl)C3(C2)OCCO3)nc1C(=O)NCCOC (stereo not drawn) [Example 5]
226 nM

Try this molecule next: COCCNC(=O)c1nc(N2CCC(NC(=O)c3[nH]c(C)c(Cl)c3Cl)C3(C2)OCCO3)sc1C(=O)O (stereo not drawn) [Example 14]
< 9.77 nM

Try this molecule next: COC(=O)c1cnc(N2CC[C@H](NC(=O)c3[nH]c(C)c(Cl)c3Cl)[C@H](n3ccnn3)C2)s1 (racemic) [Example 126]
32.7 nM

Try this molecule next: COCC(COC)NC(=O)c1nc(N2CC[C@@H](NC(=O)c3[nH]c(C)c(Cl)c3Cl)[C@@H](n3cc(CO)nn3)C2)sc1C(=O)O [Example 114]
< 9.77 nM

Try this molecule next: COCCNC(=O)c1nc(N2CC[C@@H](NC(=O)c3[nH]c(C)c(Cl)c3Cl)[C@@H](n3ccnn3)C2)sc1C(=O)O [Example 100]
< 9.77 nM
